experiment: Compound solubilisation; assay type: physicochemical; conditions: solvent as stated in the sentence
reportedEndpoint: solubility (in words)

[
  {
    "compoundSmiles": "NC(=O)NC(=O)CCCSc1nnc(N)s1",
    "assayValue": "solubility issues"
  },
  {
    "compoundSmiles": "COC(=O)c1[nH]n(-c2ccc(C(=O)O)cc2)c(=O)c1CCO",
    "assayValue": "solubility issues"
  },
  {
    "compoundSmiles": "Cn1cc(-c2nnc(SCC(=O)Nc3ccc(C(=O)O)cc3)o2)c2ccccc21",
    "assayValue": "poorly soluble"
  },
  {
    "compoundSmiles": "O=C(CSc1nnc(-c2c[nH]c3ncccc23)o1)Nc1ccc(C(=O)O)cc1",
    "assayValue": "poorly soluble"
  },
  {
    "compoundSmiles": "CC(C)(Sc1nnc(-c2c[nH]c3ccccc23)o1)C(=O)Nc1ccc(C(=O)O)cc1",
    "assayValue": "poorly soluble"
  },
  {
    "compoundSmiles": "O=C(O)Cn1cc(-c2nnc(SCC(=O)Nc3ccc(C(=O)O)cc3)o2)c2ccccc21",
    "assayValue": "poorly soluble"
  }
]
